test system: NOMO1; experiment: cell viability relative to DMSO control; higher = less cytotoxic; conditions: RPMI 5 mM glucose + 10% FBS; 48 h; 0.000781 µM
Flag rule - cell viability less than 90% flags fulfilled; the remaining entries get not fulfilled.

I wonder whether O=C(O)c1cccnc1 has cell viability below 90%. Can you tell? not fulfilled

I wonder whether CN1CCC(CNc2ccc3ncc(-c4cccc(OC(F)(F)F)c4)n3n2)CC1 has cell viability below 90%. Can you tell? fulfilled

I wonder whether O=C(CCCN1CCC(O)(c2ccc(Cl)cc2)CC1)c1ccc(F)cc1 has cell viability below 90%. Can you tell? not fulfilled

I wonder whether CN(CC(=O)N(Cc1ccc(C2CCCCC2)cc1)c1ccc(C(=O)O)c(O)c1)[S+](=O)([O-])c1c(F)c(F)c(F)c(F)c1F has cell viability below 90%. Can you tell? not fulfilled

I wonder whether Cc1cc(/C=c2/sc3nc4ccccc4n3c2=O)c(C)n1-c1ccccc1 has cell viability below 90%. Can you tell? not fulfilled

I wonder whether CC1(C)[C@@H](O)CC[C@@]2(C)[C@H]1CC[C@]3(C)[C@@H]2C(=O)\C=C/4[C@@H]5C[C@](C)(CC[C@]5(C)CC[C@@]34C)C(O)=O has cell viability below 90%. Can you tell? not fulfilled
